Biological target: 5-HT2CR (Homo sapiens, UniProt P28335)
Sequence (P28335 33-458): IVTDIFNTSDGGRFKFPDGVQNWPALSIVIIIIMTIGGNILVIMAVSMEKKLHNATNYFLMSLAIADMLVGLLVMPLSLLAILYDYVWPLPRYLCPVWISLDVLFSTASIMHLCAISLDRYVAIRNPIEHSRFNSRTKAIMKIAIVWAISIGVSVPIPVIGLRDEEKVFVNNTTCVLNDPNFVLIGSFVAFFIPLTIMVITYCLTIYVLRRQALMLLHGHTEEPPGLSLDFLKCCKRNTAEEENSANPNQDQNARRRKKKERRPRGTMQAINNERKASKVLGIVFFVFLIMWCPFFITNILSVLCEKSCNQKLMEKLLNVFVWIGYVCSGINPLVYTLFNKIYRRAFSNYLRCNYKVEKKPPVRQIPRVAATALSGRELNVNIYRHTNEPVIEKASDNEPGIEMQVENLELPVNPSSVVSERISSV
Assay: 5-HT2CR binding affinity (Ki), Table 8
Details: bracketed value below Ki; read-out: 5-HT2CR pKi ± S.E.M (converted)
Items are presented alongside their recorded Ki.
Give the value in nM but do not write nM after it.

Prompt line: Tell me the measured Ki of C[C@H]1C=C(c2c[nH]c3ncccc23)CN(C)C1 , please.
Response line: 741

Prompt line: Tell me the measured Ki of CCCCN1CC(c2c[nH]c3ncccc23)=C[C@H](C)C1 , please.
Response line: 7410

Prompt line: Tell me the measured Ki of Cc1ncc(CCN2CC(c3c[nH]c4ncccc34)=C[C@H](C)C2)cn1 , please.
Response line: 28.8

Prompt line: Tell me the measured Ki of CCCN1CC(c2cncc(Cl)c2)=C[C@H](C)C1 , please.
Response line: 6310

Prompt line: Tell me the measured Ki of C1=C(c2c[nH]c3ncccc23)CNCC1 , please.
Response line: 288
